Numbers sourced from the FLAb antibody collection (doi:10.7554/elife.23156).

variants and their reported Kd
B1: scFv; the commonest letter at each place (parent)
chain 1: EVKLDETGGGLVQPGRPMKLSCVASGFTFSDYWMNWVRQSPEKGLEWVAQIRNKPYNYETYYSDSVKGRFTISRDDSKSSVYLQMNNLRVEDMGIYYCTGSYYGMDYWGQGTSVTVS
chain 2: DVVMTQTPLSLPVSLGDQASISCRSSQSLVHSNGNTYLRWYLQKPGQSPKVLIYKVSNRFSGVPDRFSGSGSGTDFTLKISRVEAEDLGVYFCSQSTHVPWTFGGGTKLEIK

Variants of: B1
method: Kd (Tite-Seq)
condition context: with fluorescein; format: scFv 4-4-20, heavy + light

variant label: chain 1 G100M S101E W108V
Kd: ≥ 10 µM
//
variant label: chain 1 M34L N35T
Kd: ≥ 10 µM
//
variant label: chain 1 T28V F29W
Kd: 0.0154 µM
